# credit: ChEMBL document CHEMBL3228032

tested on: Rattus norvegicus; test: Antiallergic activity against ip dosed passive peritoneal anaphylaxis rat model assessed as inhibition of histamine release in peritoneal fluid administered 30s prior to ovalbumin challenge measured per rat after 5 mins; assay type: functional
Give measured ED50 for each item. Keep answers brief.
Unit ×10⁻¹⁰ M implied. Number only.

Query string: Suppose we examine the molecule CCCc1c(OCC(O)COc2ccc3c(O)c([N+](=O)[O-])c(=O)oc3c2CCC)ccc(C(C)=O)c1O (stereo not drawn) ; what ED50 value has been reported?
Result string: 6.2

Query string: Suppose we examine the molecule CCCc1c(OCC(O)COc2ccc3c(O)c([N+](=O)[O-])c(=O)oc3c2)ccc(C(C)=O)c1O (stereo not drawn) ; what ED50 value has been reported?
Result string: 6.5
